# Test system: 624824-186-R-J3-PDC multicell spheroids, viability
# METHOD_DESCRIPTION: Anticancer human tumor 624824-186-R-J3-PDC patient-derived colon adenocarcinoma cell line growth inhibition [PI3K]
# MEASUREMENT_CONTEXT: second compound 3.16 µM; first compound 0.0316 µM; stronger effect = lower value
# Source text: Combinatorial screen of targeted agents with the PI3K inhibitors inavolisib, alpelisib, duvelisib, and copanlisib in multi-cell type tumor spheroids A high-throughput screen of multi-cell type tumor spheroids was designed to identify active combinations of targeted small molecules and PI3K pathway inhibitors. […] Compounds. […] If the clinical Cmax for an agent had not been determined, the highest concentration tested was 10 microM. […]
MEASURED_METRIC: viability, T/C (%)
Numbers only; they are read as %.

Q) Query (molecule): CC(C)n1nc(-c2ccc3oc(N)nc3c2)c2c(N)ncnc21 + CC(Nc1ncnc2nc[nH]c12)c1cc2cccc(Cl)c2c(=O)n1-c1ccccc1 ; field requested: viability, T/C
A) 85.3

Q) Record request: viability, T/C value, item Cn1ncnc1[C@H]1c2n[nH]c(=O)c3cc(F)cc(c23)N[C@@H]1c1ccc(F)cc1 + Cc1nc(NC(=O)N2CCCC2C(N)=O)sc1-c1ccnc(C(C)(C)C(F)(F)F)c1
A) 91.8

Q) Form field: reported viability, T/C of C#Cc1c(F)ccc2cc(O)cc(-c3ncc4c(N5CC6CCC(C5)N6)nc(OCC56CCCN5CC(F)C6)nc4c3F)c12 (stereo not drawn) + Cc1nc(NC(=O)N2CCCC2C(N)=O)sc1-c1ccnc(C(C)(C)C(F)(F)F)c1
A) 88.9

====

# Test system: 624824-186-R-J3-PDC multicell spheroids, viability
# METHOD_DESCRIPTION: Anticancer human tumor 624824-186-R-J3-PDC cell line growth inhibition [PI3K];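 further: luminescent signal used as a stand-in for spheroid viability; spheroids exposed to agents for seven days before luminescence read; percent viability relative to DMSO vehicle control wells taken as 100%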
# MEASUREMENT_CONTEXT: second compound 1 µM; first compound 0.000316 µM; stronger effect = lower value
Reported viability, T/C values follow for various molecules
Answer in %, number only, no unit symbol.

- MOLECULE: "CC(=O)c1c(C)c2cnc(Nc3ccc(N4CCNCC4)cn3)nc2n(C2CCCC2)c1=O + Cc1nc(NC(=O)N2CCCC2C(N)=O)sc1-c1ccnc(C(C)(C)C(F)(F)F)c1"
  UNIT_SYMBOL: "%"
  viability, T/C: 106
- MOLECULE: "Cn1ncnc1[C@H]1c2n[nH]c(=O)c3cc(F)cc(c23)N[C@@H]1c1ccc(F)cc1 + CC(Nc1ncnc2nc[nH]c12)c1cc2cccc(Cl)c2c(=O)n1-c1ccccc1"
  UNIT_SYMBOL: "%"
  viability, T/C: 98.5
- MOLECULE: "Cn1ncnc1[C@H]1c2n[nH]c(=O)c3cc(F)cc(c23)N[C@@H]1c1ccc(F)cc1 + Cc1nc(NC(=O)N2CCCC2C(N)=O)sc1-c1ccnc(C(C)(C)C(F)(F)F)c1"
  UNIT_SYMBOL: "%"
  viability, T/C: 96.6
- MOLECULE: "Cn1ncnc1[C@H]1c2n[nH]c(=O)c3cc(F)cc(c23)N[C@@H]1c1ccc(F)cc1 + COc1c(OCCCN2CCOCC2)ccc2c3n(c(=NC(=O)c4cnc(N)nc4)nc12)CCN3"
  UNIT_SYMBOL: "%"
  viability, T/C: 27.3
- MOLECULE: "CC(=O)c1c(C)c2cnc(Nc3ccc(N4CCNCC4)cn3)nc2n(C2CCCC2)c1=O + CC(Nc1ccc2c(c1)OCCn1cc(N3C(=O)OCC3C(F)F)nc1-2)C(N)=O"
  UNIT_SYMBOL: "%"
  viability, T/C: 91.3
- MOLECULE: "CC(C)n1nc(-c2ccc3oc(N)nc3c2)c2c(N)ncnc21 + Cc1nc(NC(=O)N2CCCC2C(N)=O)sc1-c1ccnc(C(C)(C)C(F)(F)F)c1"
  UNIT_SYMBOL: "%"
  viability, T/C: 104
- MOLECULE: "CC(C)n1nc(-c2ccc3oc(N)nc3c2)c2c(N)ncnc21 + CC(Nc1ccc2c(c1)OCCn1cc(N3C(=O)OCC3C(F)F)nc1-2)C(N)=O"
  UNIT_SYMBOL: "%"
  viability, T/C: 85.8
- MOLECULE: "CC(C)n1nc(-c2ccc3oc(N)nc3c2)c2c(N)ncnc21 + COc1c(OCCCN2CCOCC2)ccc2c3n(c(=NC(=O)c4cnc(N)nc4)nc12)CCN3"
  UNIT_SYMBOL: "%"
  viability, T/C: 28.5

Q) Request the reported viability, T/C associated with Cn1ncnc1[C@H]1c2n[nH]c(=O)c3cc(F)cc(c23)N[C@@H]1c1ccc(F)cc1 + CC(Nc1ccc2c(c1)OCCn1cc(N3C(=O)OCC3C(F)F)nc1-2)C(N)=O
A) 90.6

Q) Can you look up the measured viability, T/C of CC(=O)c1c(C)c2cnc(Nc3ccc(N4CCNCC4)cn3)nc2n(C2CCCC2)c1=O + COc1c(OCCCN2CCOCC2)ccc2c3n(c(=NC(=O)c4cnc(N)nc4)nc12)CCN3 for me?
A) 27.6

Q) What viability, T/C value was documented for this molecule, CC(=O)c1c(C)c2cnc(Nc3ccc(N4CCNCC4)cn3)nc2n(C2CCCC2)c1=O + CC(Nc1ncnc2nc[nH]c12)c1cc2cccc(Cl)c2c(=O)n1-c1ccccc1 ?
A) 94.4

Q) Could you tell me which viability, T/C is on file for CC(C)n1nc(-c2ccc3oc(N)nc3c2)c2c(N)ncnc21 + CC(Nc1ncnc2nc[nH]c12)c1cc2cccc(Cl)c2c(=O)n1-c1ccccc1 ?
A) 102
